// data source = paper PMC10692473

- System: methicillin-resistant S. aureus (ATCC43300)
- experimentDescription: Mouse model of sepsis induced by MRSA
- Type: in vivo, ICR mice
- conditionNotes: 10 mg/kg ig, MRSA ATCC43300, observed 7 days
quantityKind: protective effect / survival in mouse model of sepsis

[[record]]
compound = "CO[C@H]1CN(c2ccc(/C(C)=N/O)nn2)CC[C@H]1NC(=O)c1[nH]c(C)c(Cl)c1Cl [Compound 23]"
measvalue = "weak protective effects"

[[record]]
compound = "COC(=O)c1ccc(N2CC[C@@H](NC(=O)c3[nH]c(C)c(Cl)c3Cl)[C@@H](OC)C2)nn1 [Compound 14]"
measvalue = "weak protective effects"

[[record]]
compound = "COC[C@H](C)NC(=O)c1nc(N2CC[C@@H](NC(=O)c3[nH]c(C)c(Cl)c3Cl)[C@@H](OC)C2)sc1C(=O)O [AZD5099 (6), reference compound]"
measvalue = "survived"

[[record]]
compound = "CO[C@H]1CN(c2ccc(C(=O)C(F)(F)F)nn2)CC[C@H]1NC(=O)c1[nH]c(C)c(Cl)c1Cl [Compound 22]"
measvalue = "weak protective effects"


Next up:
### Prompt Recorded protective effect / survival in mouse model of sepsis of CO[C@H]1CN(c2ccc(C(C)(C)O)nn2)CC[C@H]1NC(=O)c1[nH]c(C)c(Cl)c1Cl [Compound 28] , please.
### Response survived
